Listed here: items and their measured cAMP EC50 (assay 1).
Molecular target: T1, human glucose-dependent insulinotropic peptide (gastric inhibitory polypeptide) receptor (human, UniProt P48546 22-466)
T1 sequence (looked up): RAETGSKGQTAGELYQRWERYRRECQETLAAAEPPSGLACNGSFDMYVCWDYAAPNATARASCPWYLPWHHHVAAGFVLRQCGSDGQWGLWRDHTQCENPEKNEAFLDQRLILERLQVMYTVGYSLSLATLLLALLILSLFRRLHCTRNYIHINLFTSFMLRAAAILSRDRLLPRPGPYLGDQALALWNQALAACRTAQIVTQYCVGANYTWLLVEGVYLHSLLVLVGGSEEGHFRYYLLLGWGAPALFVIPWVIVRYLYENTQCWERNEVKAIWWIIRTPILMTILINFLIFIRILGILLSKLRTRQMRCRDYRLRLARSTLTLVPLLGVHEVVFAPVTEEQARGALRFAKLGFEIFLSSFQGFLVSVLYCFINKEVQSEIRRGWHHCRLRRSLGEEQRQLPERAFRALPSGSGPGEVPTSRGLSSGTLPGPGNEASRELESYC
Assay: cell-based or functional assay
Provide the reading as a plain figure in nM.

Solved cases below.
>>> endpoint_value("HSQGTFTSDKSRYLDSRSARDFVAWLEAGG (X10 = K(gE-palm); C-terminal amide) [G849]")
17
>>> endpoint_value("HSQGTFTSDKSSYLDSRRARDFVAWLEAGG (X10 = K(gE-palm); C-terminal amide) [G796]")
14
>>> endpoint_value("HSQGTFTSDKSKYLEGQAAKEFIAWLEKGR (X10 = K(gE-palm); C-terminal amide) [G812]")
2.7

Next binder, please.
## Task Entry under review: HSQGTFTSDKSSYLDSRSARDFVAWLEAGG (X10 = K(gE-palm); C-terminal amide) [G865] . Reported cAMP EC50 (assay 1)?
## Result 22

Values from patent US20190185537A1
